# test system: Macrophage-stimulating protein receptor (Homo sapiens, UniProt Q04912)
# Sequence (Q04912 25-304 limits assumed): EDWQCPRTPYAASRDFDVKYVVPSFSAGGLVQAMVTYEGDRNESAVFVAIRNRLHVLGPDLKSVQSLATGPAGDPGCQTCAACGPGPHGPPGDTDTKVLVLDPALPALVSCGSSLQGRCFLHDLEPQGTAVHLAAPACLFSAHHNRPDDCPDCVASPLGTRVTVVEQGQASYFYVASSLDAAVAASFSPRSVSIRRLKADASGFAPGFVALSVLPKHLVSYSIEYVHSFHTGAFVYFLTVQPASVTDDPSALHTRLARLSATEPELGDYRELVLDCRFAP
# Sequence (Q04912 310-1400 limits assumed): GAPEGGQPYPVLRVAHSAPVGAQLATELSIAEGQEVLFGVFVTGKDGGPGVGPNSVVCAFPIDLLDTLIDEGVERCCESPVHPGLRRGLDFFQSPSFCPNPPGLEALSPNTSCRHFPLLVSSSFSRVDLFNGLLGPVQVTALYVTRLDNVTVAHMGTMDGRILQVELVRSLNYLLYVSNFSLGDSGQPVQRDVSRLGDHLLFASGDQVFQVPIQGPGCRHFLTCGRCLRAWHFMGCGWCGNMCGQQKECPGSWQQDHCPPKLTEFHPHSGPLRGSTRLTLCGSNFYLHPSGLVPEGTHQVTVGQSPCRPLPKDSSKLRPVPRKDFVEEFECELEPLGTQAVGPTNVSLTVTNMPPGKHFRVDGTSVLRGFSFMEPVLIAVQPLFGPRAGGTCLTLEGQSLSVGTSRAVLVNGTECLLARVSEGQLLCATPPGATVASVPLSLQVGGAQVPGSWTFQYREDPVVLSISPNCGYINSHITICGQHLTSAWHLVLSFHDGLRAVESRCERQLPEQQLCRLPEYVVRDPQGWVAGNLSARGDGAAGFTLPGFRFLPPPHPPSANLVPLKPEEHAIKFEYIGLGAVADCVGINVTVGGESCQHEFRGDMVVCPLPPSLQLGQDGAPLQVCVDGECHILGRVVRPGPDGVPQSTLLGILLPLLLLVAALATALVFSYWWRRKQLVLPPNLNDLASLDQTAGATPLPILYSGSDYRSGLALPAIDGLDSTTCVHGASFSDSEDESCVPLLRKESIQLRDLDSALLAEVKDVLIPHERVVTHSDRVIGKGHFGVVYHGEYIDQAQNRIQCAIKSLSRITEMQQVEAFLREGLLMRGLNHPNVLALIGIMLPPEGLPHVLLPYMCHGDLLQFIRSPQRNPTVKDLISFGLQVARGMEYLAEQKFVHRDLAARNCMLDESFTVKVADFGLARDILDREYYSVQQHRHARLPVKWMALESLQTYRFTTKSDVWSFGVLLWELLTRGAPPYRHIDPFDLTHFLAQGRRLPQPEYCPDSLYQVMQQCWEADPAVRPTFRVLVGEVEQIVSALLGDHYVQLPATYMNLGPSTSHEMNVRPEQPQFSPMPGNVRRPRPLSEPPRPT
# measurement description: Inhibition of RON (unknown origin) kinase domain by enzymatic assay
measured attribute: pIC50
In plain terms, pIC50 is the concentration in mol/L turned into minus its base-10 logarithm.

Enquiry: Given the entry Cn1cnc(-c2cc3nccc(Oc4ccc(NC(=O)c5cnn(-c6ccccc6)c5C(F)(F)F)cc4F)c3s2)c1 , report its measured pIC50.
Return: 7.92

====

# test system: Macrophage-stimulating protein receptor (Homo sapiens)
# measurement description: Inhibition of RON phosphorylation in human PC3 cells
# Format: cell-based, PC-3
measured attribute: IC50
Form field: result (number plus unit)

Enquiry: Provide the documented IC50 with Macrophage-stimulating protein receptor (Homo sapiens) as the system for Cn1cnc(-c2cc3nccc(Oc4ccc(NC(=O)c5cnn(-c6ccccc6)c5C(F)(F)F)cc4F)c3s2)c1
Return: 30 nM
